assayName: qHTS of pediatric cancer cell lines to identify multiple opportunities for drug repurposing: Confirmatory screen for U-2 OS cells (AID 1347122); note: nearly all actives have a fitted effect of over 65% in size
conditionDetails: U-2 OS osteosarcoma cell viability; series mostly up to 45.9 µM
Records with an inconclusive call do not appear. Calls of active or inactive are those of the source. Calls come from the whole dose curve; as a rule, active = well fitted cell-killing curve with a large enough effect; inconclusive = small, poorly fitted or top-dose-only effect; inactive = no such curve, though single readings can be large or run the other way.
Pick from true (1) for active, false (0) for inactive when you respond.

[[record]]
smilestext = "CCN(CC)Cc1ccc2cc(COC(=O)Nc3ccc(C(=O)NO)cc3)ccc2c1"
label = "false (0)"

[[record]]
smilestext = "COc1cc(OC)c(C=CS(=O)(=O)Cc2ccc(OC)c(NCC(=O)O)c2)c(OC)c1"
label = "true (1)"

[[record]]
smilestext = "CN(C)c1ccc(C(=O)NCCCCCCC(=O)NO)cc1"
label = "true (1)"


Q. Recorded test outcome, item CS(=O)(=O)N1CCc2c(-c3cnc(N)nc3)nc(N3CCOCC3)nc21
A. true (1)

* * *

assayName: qHTS of pediatric cancer cell lines to identify multiple opportunities for drug repurposing: Confirmatory screen for TC32 cells (AID 1347118);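 note: potency is the fitted concentration of half-maximal effect; cells exposed to compound for 48 h before the read; nearly all actives have a fitted effect of over 65% in size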
conditionDetails: TC32 Ewing sarcoma cells viability qHTS; series mostly up to 45.9 µM
Method: Drug repurposing or repositioning has been offered as a strategy for drug development in oncology programs. […] [1] Shen, M et al. Quantitative high-throughput phenotypic screening of pediatric cancer cell lines identifies multiple opportunities for drug repurposing. […] Cells were assayed in growth media at a density of 500-1,000 cells/well. […] After a 15min incubation at room temperature, samples were analyzed for luminescence intensity using a ViewLux High-throughput CCD imager equipped with clear filters.
Inconclusive results are not listed. The source made the active and inactive calls. The call rests on the fitted dose curve; in most records, active means well fitted cell-killing curve with a large enough effect; inconclusive means small, poorly fitted or top-dose-only effect; inactive means no such curve, though single readings can be large or run the other way.
measuredQuantity: Potency

[[record]]
compound = "CC(N[C@H]1CCCC[C@H]1NC(=O)c1ccc(Cl)cc1)c1cccc2ccccc12 (some centres undefined)"
measuredquantity = "Potency"
result = "5850 nM (active)"

[[record]]
compound = "CCOC(=O)N1CCN([N+]([O-])=NOc2ccc([N+](=O)[O-])cc2C#N)CC1"
measuredquantity = "Potency"
result = "2330 nM (active)"

[[record]]
compound = "COc1cc(C=CC(=O)CC(=O)C=Cc2ccc(O)c(OC)c2)ccc1O"
measuredquantity = "Potency"
result = "9550 nM (active)"


Q. Recorded Potency for COc1cc(OC)c(C=CS(=O)(=O)Cc2ccc(OC)c(NCC(=O)O)c2)c(OC)c1 , please?
A. 208 nM (active)

Q. Recorded Potency for COc1ccc(C=Cc2cc(OC)c(OC)c(OC)c2)cc1NC(=O)[C@H](N)CO , please?
A. 46.5 nM (active)

Q. Recorded Potency for COc1cc([C@@H]2c3cc4c(cc3[C@H](O)[C@H]3COC(=O)[C@@H]23)OCO4)cc(OC)c1OC , please?
A. 465 nM (active)

* * *

System: MKL-1
assayName: qHTS assay to identify novel small-molecules to repurpose for Merkel cell carcinoma treatment (AID 1296009); note: nearly all actives have a fitted effect of over 60% in size
conditionDetails: MCC and control cell lines, CellTiter-Glo viability, 72 h; series mostly up to 46 µM
Results filed as inconclusive are left out. Active and inactive are the calls of the source. The call rests on the fitted dose curve; in most records, active means well fitted inhibition curve with a large enough effect; inconclusive means small, poorly fitted or top-dose-only effect; inactive means flat fitted curve, though single readings scatter.
Pick from active, inactive when you respond.

[[record]]
molecule = "C[C@](Cc1c[nH]c2ccccc12)(NC(=O)OC1C2CC3CC(C2)CC1C3)C(=O)NC[C@H](NC(=O)CCC(=O)O)c1ccccc1 (some centres undefined)"
label = "inactive"

[[record]]
molecule = "O=c1c(O)c(-c2ccc(O)c(O)c2)oc2cc(O)ccc12"
label = "inactive"

[[record]]
molecule = "COc1cc([C@@H]2c3cc4c(cc3[C@@H](O[C@@H]3O[C@@H]5CO[C@@H](c6cccs6)O[C@@H]5[C@H](O)[C@@H]3O)[C@H]3COC(=O)[C@H]23)OCO4)cc(OC)c1O"
label = "active"


Q. Recorded test outcome, item CCCCCCCCCCCCCCCC(=O)OC[C@@H](NC(=O)C(Cl)Cl)[C@H](O)c1ccc([N+](=O)[O-])cc1
A. inactive

Measured values drawn from PubChem BioAssay (NCATS) for this set.
